System: U2OS
Test: Incucyte cell viability with U2OS; also: unitless GR value; below 1 slowed growth and below 0 cell loss
Type: toxicity, cell-based
Conditions: human, 0 h, 10 µM, compound concentration 10 uM, replicate number 2, timepoint 0 hours
experimental_readout: Growth Rate
Answer with a number only.

{"columns": ["compound", "Growth Rate"],
 "data": [
  ["CN(C)[C@H]1CN(C2CCc3cccc(F)c32)C[C@@H]1c1ccc(N2CCN(S(C)(=O)=O)CC2)cc1 (stereo partly drawn)", -0.68],
  ["CC[C@H](NC(=O)c1c(C)c(-c2ccccc2)nc2ccccc12)c1ccccc1 [SB-222200]", -1],
  ["CCC(=O)N1CC[C@H](Nc2ncnc3c2CN(c2cnc(OC)c(C(F)(F)F)c2)CC3)C1 [LENIOLISIB]", 0.52],
  ["CC(C)C[C@H](CO)Nc1nc(S[C@@H](C)c2ccccc2)nc2nc(N)sc12 [AZD-8797]", -1],
  ["CC[C@H]1CN2CCc3cc(OC)c(OC)cc3[C@@H]2C[C@@H]1C[C@H]1NCCc2cc(OC)c(OC)cc21 [EMETINE]", -1],
  ["N#Cc1cc(F)cc(-c2nc(-c3ccc(F)cn3)no2)c1", -0.87],
  ["COc1ccc(S(=O)(=O)N2C(=O)[C@@](c3ccccc3OC)(N3C[C@H](O)C[C@H]3C(=O)N(C)C)c3cc(Cl)ccc32)c(OC)c1", -1],
  ["CC[C@H](Nc1ncnc2[nH]cnc12)c1nc2cccc(F)c2c(=O)n1-c1ccccc1 [IDELALISIB]", -0.03]
]}

The record that follows has no Growth Rate shown yet.
Under U2OS: report Growth Rate of C[C@@H](O[C@H]1OCCN(Cc2n[nH]c(=O)[nH]2)[C@H]1c1ccc(F)cc1)c1cc(C(F)(F)F)cc(C(F)(F)F)c1 [APREPITANT] . -1

Data provenance is ChEMBL document CHEMBL5058564.
